- Target under test: T1, CRBN, Q96SW2;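 also: pooled lentiviral library of zinc finger degron-EGFP fusions in mCherry-positive Jurkat cells, FACS-sorted after compound exposure, with degron abundance counted by next-generation sequencing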
- T1 chain: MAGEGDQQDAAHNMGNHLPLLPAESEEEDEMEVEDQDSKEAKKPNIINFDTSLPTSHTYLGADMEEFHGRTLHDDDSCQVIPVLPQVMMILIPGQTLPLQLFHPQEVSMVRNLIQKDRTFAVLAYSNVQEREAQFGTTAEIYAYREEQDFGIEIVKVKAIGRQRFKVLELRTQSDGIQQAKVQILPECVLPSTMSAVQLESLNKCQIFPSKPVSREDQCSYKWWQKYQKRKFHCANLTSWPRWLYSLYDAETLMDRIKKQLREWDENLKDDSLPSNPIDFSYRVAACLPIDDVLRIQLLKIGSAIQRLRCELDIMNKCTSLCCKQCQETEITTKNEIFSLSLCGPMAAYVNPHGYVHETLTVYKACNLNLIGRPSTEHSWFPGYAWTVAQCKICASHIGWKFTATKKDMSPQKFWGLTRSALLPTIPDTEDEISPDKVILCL
- Assay explanation: log2 fold change of degron read counts, EGFP-low vs EGFP+ sorted cells (limma voom), compound-induced degradation; higher = more compound-induced degradation of the degron-EGFP fusion; degrons are variants of IKZF1/3 zinc finger 2; compound dose not given here
- Condition: Jurkat; 18 h; compound: thalidomide
In all, about 8,300 sequences were measured (“log2 fold change of degron read counts, EGFP-low vs EGFP+ sorted cells (limma voom), compound-induced degradation”: median about -1.1, highest 2% from about 3.2 on). This is one part of a sample in which the highest values are shown more often than they occur.
Using log2 fold change of degron read counts as the sorting value, the categories are 1 = under -0.8, 2 = from -0.8 up to 0.8, 3 = 0.8 and over

Sequence chain | Class name
FCCDICGANFTQKGNLLRHIKL [46F_47C_49D_50I_52G_53A_54N_55F_67L_, Q9UKT9] | 2
LFCPICGFGCTQKGNLLRHIKL [46L_47F_49P_50I_52G_53F_54G_55C_67L_, Q9UKT9] | 3
FLCPICGAPFTQKGNLLRHIKL [46F_47L_49P_50I_52G_53A_54P_55F_67L_, Q9UKT9] | 3

Kindly consider the entry below.
Query: Classify this sequence: FSCEICGARFTQKGNLLRHIKL [46F_47S_49E_50I_52G_53A_54R_55F_67L_, Q9UKT9]
Response: 3
